# Tested on: KYSE70
# procedure-details: WST-1 proliferation assay, KYSE70 cells
# Assay type: cell-based
# experimental-conditions: Homo sapiens, KYSE-70; medium containing 5% FBS, 48 hr, WST-1 assay; read-out: IC^50 of H5 on ESCC cells, KYSE70
reported-property: pIC50
Just the number, please; pIC50 means minus log10 of the concentration in mol/L.

For the molecule O=c1nc(-c2ccccc2)c(-c2ccccc2)n[nH]1 , report pIC50. 5.24
